# Assayed Target: Rap guanine nucleotide exchange factor 4 (Homo sapiens) (UniProt Q8WZA2)
# Sequence (Q8WZA2 whole entry, looked up): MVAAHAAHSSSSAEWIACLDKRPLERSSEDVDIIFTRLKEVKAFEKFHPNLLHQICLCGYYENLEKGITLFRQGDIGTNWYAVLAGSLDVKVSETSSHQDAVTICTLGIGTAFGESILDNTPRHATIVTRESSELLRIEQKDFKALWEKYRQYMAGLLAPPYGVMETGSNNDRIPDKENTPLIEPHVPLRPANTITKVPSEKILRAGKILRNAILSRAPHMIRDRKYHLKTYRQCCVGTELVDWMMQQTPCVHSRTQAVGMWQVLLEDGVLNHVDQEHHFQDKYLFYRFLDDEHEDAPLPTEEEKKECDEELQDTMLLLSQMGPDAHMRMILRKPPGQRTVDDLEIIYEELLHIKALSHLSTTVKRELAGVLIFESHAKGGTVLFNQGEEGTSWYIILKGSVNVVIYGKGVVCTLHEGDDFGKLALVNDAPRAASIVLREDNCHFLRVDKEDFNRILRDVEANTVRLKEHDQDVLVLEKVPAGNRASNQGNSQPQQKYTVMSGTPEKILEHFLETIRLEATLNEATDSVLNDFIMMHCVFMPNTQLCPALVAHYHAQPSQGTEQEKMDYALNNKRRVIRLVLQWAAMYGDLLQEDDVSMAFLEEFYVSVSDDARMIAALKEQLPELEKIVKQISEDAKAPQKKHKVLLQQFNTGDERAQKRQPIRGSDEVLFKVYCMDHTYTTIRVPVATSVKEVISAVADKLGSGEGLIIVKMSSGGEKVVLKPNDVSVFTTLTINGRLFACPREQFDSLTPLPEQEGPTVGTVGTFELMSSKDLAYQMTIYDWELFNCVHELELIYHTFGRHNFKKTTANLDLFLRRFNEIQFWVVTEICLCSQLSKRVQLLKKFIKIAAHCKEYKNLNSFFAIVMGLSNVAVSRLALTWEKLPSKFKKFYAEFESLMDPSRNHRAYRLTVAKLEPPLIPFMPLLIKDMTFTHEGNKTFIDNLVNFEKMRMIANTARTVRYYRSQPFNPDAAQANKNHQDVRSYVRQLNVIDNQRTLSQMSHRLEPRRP
# Assay Overview: Validation qHTS for agonist of cAMP-regulated guanine nucleotide exchange factor 4 (EPAC2);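 on activation: exchange makes BODIPY-GDP fluorescence drop when released from Rap1B; series mostly up to about 150 µM; on the % scale 0 is the no-effect control and ±100 the full control effect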
# Experimental Conditions: EPAC2 Rap1B BODIPY-GDP exchange, fluorescence; hits give high values
Among all 16,000 compounds or so, about 40 (0.2%) were called active. Another 1% or so got no clear call; they are omitted. The entries come from a sample that favours actives as a whole.
Collected activation values appear next to each entry.
Just the number in %, nothing appended.

CCOC(=O)C[C@H]1c2cc(F)ccc2S(=O)(=O)N1C1CCCC1 : -9.78
COC(=O)c1ccccc1C(=O)NCC1Cc2cc(-c3nc(C)cnc3C)ccc2O1 (stereo not given) : -20.8
COC(=O)C1C(O)CC[C@H]2CN3CCc4c([nH]c5ccccc45)C3C[C@H]12 (stereo not given in full) : 2.5
CCCCCCCCCC[n+]1ccc(/C=C/c2c[nH]c3ccccc23)c2ccccc21 : -5.9

Now for another entry.
Quick check: activation of "COc1ccc(C(=O)N2CCC[C@@]3(CCN(c4ncccn4)C3)C2)cc1" ? -15.1

====

Collected activation values appear next to each entry.
# Assayed Target: Rap guanine nucleotide exchange factor 4 (Homo sapiens) (UniProt Q8WZA2)
# Assay Overview: Validation qHTS for agonist of cAMP-regulated guanine nucleotide exchange factor 4 (EPAC2);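 on activation: exchange makes BODIPY-GDP fluorescence drop when released from Rap1B; series mostly up to about 150 µM; on the % scale 0 is the no-effect control and ±100 the full control effect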
# Experimental Conditions: EPAC2 Rap1B BODIPY-GDP exchange, fluorescence; hits give high values
The whole screen tested about 16,000 compounds, of which about 40 (0.2%) were called active. Not shown: some 1% with an inconclusive outcome. For the sample, actives were picked, then their nearest neighbours and some compounds at random. Residues, ends and D or L forms follow the SMILES beside them.

C[N+](C)(CCOc1ccccc1)Cc1cccs1 : -2.61% (inactive)
CC(C)CC(NC(=O)CN)C(=O)NC(Cc1ccccc1)C(=O)O (stereo not drawn) (H-Gly-Leu-Phe-OH; configuration not given here) : -3.33% (inactive)
Cc1oc(-c2ccccc2NC(=O)C2CCCO2)nc1CNC(=O)c1[nH]c2c(C)ccc(C)c2c1C (configuration not stated) : 8.6% (inactive)
COc1ccccc1/C=C\C(=O)OC[C@@H]1CCCN2CCCC[C@H]12 : -21.1% (inactive)
O=c1c(-c2ccc(F)cc2)nc2cnc(Oc3cccc(Cl)c3)nc2n1C[C@H]1CCCO1 : 10.2% (inactive)

Quick check: activation of "CC(C)NC(=O)[C@@H]1C[C@@H](Sc2ccccn2)CN1C1CCN(C)CC1" ? -0.85% (inactive)

Quick check: activation of "O=C(c1cccc(F)c1)N1CCC2(CC1)CN(c1ccccc1)C2" ? 4.44% (inactive)

Quick check: activation of "COCC(=O)N1CCC[C@@]2(CCN(c3ccccn3)C2)C1" ? -5.3% (inactive)

====

# Assayed Target: Rap guanine nucleotide exchange factor 4 (Homo sapiens)
# Assay Overview: Validation qHTS for agonist of cAMP-regulated guanine nucleotide exchange factor 4 (EPAC2);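 on activation: exchange makes BODIPY-GDP fluorescence drop when released from Rap1B; series mostly up to about 150 µM; on the % scale 0 is the no-effect control and ±100 the full control effect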
# Experimental Conditions: EPAC2 Rap1B BODIPY-GDP exchange, fluorescence; hits give high values
Screen size: about 16,000 compounds; about 40 (0.2%) were called active. About 1% were inconclusive and are not listed. This excerpt belongs to a sample that is enriched for actives.
Collected activation values appear next to each entry.
Just the number in %, nothing appended.

COC(=O)C(O)C1C(C)(C)C(OC(C)=O)C2CC3=C4CC(=O)OC(c5ccoc5)[C@]4(C)CCC3[C@@]1(C)C2=O (some centres undefined) : -10.7
OC(CN1CCCCC1)c1cc(-c2ccccc2)on1 (centres undefined) : 8.32
O=C(Nc1ccc(C(F)(F)F)cc1[N+](=O)[O-])O[C@H]1[C@H](Cc2ccccc2)NS(=O)(=O)[C@H]2C[C@@H]3C=C[C@]12O3 : -19.6
CC(=O)O[C@H]1C[C@H]2CC[C@@H]3[C@H]4C[C@@H]([N+]5(C)CCCCC5)[C@@H](OC(C)=O)[C@]4(C)CC[C@@H]3[C@@]2(C)C[C@@H]1[N+]1(C)CCCCC1 : -8.62

Quick check: activation of "OCCN(CCO)c1ccc(/C=C/c2ccnc3ccccc23)cc1" ? -44.7

Quick check: activation of "CCNc1ncc2nc(-c3ccccc3)c(=O)n(CCc3ccccc3)c2n1" ? 4.35

Quick check: activation of "C=C1Cc2c(Cl)cc3[nH]c4c5c3c2[C@@]2(O)[C@@H]1C[C@@H]2C(C)(C)O[C@H]5[C@@H]1CC[C@@]2(O)[C@@]35O[C@@H]3[C@@H](O)[C@@H](C(=O)O)O[C@H]5CC[C@]2(C)[C@@]41C" ? -9.97

Quick check: activation of "Cc1c(C(=O)NCCCc2ccncc2)cnn1-c1nccc(-c2ccccc2F)n1" ? -21.1

Quick check: activation of "O=C1[C@H](Cc2ccccc2)NC/C=C\C[C@@H](c2ccc(Cl)cc2)N1Cc1ccccc1" ? -43

Quick check: activation of CC(=O)NCC(=O)NCC1Cc2cc(C)cc(-c3ccccn3)c2O1 (centres undefined) ? 0.493

Quick check: activation of "COCCn1c(=O)c(CCc2ccccc2)nc2cnc(N3CCN(C)CC3)nc21" ? -2.75

Quick check: activation of "Cc1ccc(N)cc1O" ? 2.89

Quick check: activation of Cc1cccnc1-c1cccc2c1OC(CNC(=O)C(=O)c1ccccc1)C2 (centres undefined) ? -7.04

Quick check: activation of COc1ccc(OC)c(CN2CCCC(c3nc(-c4ccncc4)ncc3-c3ccccc3C)C2)c1 (centres undefined) ? -2.68

Quick check: activation of "COc1cc(N)c(N)cc1OC" ? -7.59

Quick check: activation of "CC(C)C[C@@H](CO)N1CCN(Cc2cccc(C#N)c2)CCC1=O" ? -27.7

Quick check: activation of "CN(C)c1ccc(/C=C/c2ccnc3ccccc23)cc1[N+](=O)[O-]" ? -6.84

Quick check: activation of "COc1cccc(Nc2ncc3nc(C)c(=O)n(C[C@H]4CCCO4)c3n2)c1" ? -13.4

Quick check: activation of "CN(C)c1ccc(/C=C/c2ccc3cc(N(C)C)ccc3n2)cc1" ? 0.661

====

# Assayed Target: Rap guanine nucleotide exchange factor 4 (Homo sapiens) (UniProt Q8WZA2)
# Assay Overview: Validation qHTS for agonist of cAMP-regulated guanine nucleotide exchange factor 4 (EPAC2);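 on activation: exchange makes BODIPY-GDP fluorescence drop when released from Rap1B; series mostly up to about 150 µM; on the % scale 0 is the no-effect control and ±100 the full control effect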
# Experimental Conditions: EPAC2 Rap1B BODIPY-GDP exchange, fluorescence; hits give high values
About 40 (0.2%) of roughly 16,000 compounds were called active. About 1% were inconclusive and are not listed. Many of the other results were omitted from the sample, so actives are more common in it than they were.
Collected activation values appear next to each entry.
Just the number in %, nothing appended.

COCCn1c(=O)c(-c2ccc(F)cc2)nc2cnc(Nc3cccc(OC)c3)nc21 : 6.42

Which activation is reported with Rap guanine nucleotide exchange factor 4 (Homo sapiens) (UniProt Q8WZA2) for this entry: "Clc1cccc[n+]1CCc1ccccc1" ? -40.7

Which activation is reported with Rap guanine nucleotide exchange factor 4 (Homo sapiens) (UniProt Q8WZA2) for this entry: "COc1cccc2c1C(=O)c1c(O)c3c(c(O)c1C2=O)C[C@@](O)(C(=O)CO)C[C@@H]3O[C@H]1C[C@H](N)[C@H](O)[C@H](C)O1" ? -17.2

Which activation is reported with Rap guanine nucleotide exchange factor 4 (Homo sapiens) (UniProt Q8WZA2) for this entry: "CC[C@@]1(O)C[C@H](O[C@H]2C[C@H](N(C)C)[C@H](O[C@H]3C[C@H](O)[C@H](O[C@H]4CCC(=O)[C@H](C)O4)[C@H](C)O3)[C@H](C)O2)c2c(cc3c(c2O)C(=O)c2c(O)cccc2C3=O)[C@H]1C(=O)OC" ? 26

Which activation is reported with Rap guanine nucleotide exchange factor 4 (Homo sapiens) (UniProt Q8WZA2) for this entry: "CCCCC(=O)OCC(=O)[C@]1(O)Cc2c(O)c3c(c(O)c2[C@@H](O[C@H]2C[C@H](NC(=O)C(F)(F)F)[C@H](O)[C@H](C)O2)C1)C(=O)c1c(OC)cccc1C3=O" ? -1

Which activation is reported with Rap guanine nucleotide exchange factor 4 (Homo sapiens) (UniProt Q8WZA2) for this entry: OCC1OC(n2cnc3c(Cl)nc(Cl)nc32)C(O)C1O (configuration not stated) ? -15.7

Which activation is reported with Rap guanine nucleotide exchange factor 4 (Homo sapiens) (UniProt Q8WZA2) for this entry: "C[C@@H]1CN(Cc2ccc3c(c2)CN(Cc2cccc4c2OCO4)CCO3)C[C@H](C)O1" ? -2.91

====

# Assayed Target: Rap guanine nucleotide exchange factor 4 (Homo sapiens)
# Assay Overview: Validation qHTS for agonist of cAMP-regulated guanine nucleotide exchange factor 4 (EPAC2); further: potency means the concentration at half of the fitted maximal effect
# Experimental Conditions: EPAC2 Rap1B BODIPY-GDP exchange, fluorescence
In all, about 16,000 compounds went through this assay and about 40 (0.2%) were called active. About 1% were inconclusive and are not listed. This is one part of a sample in which actives are shown more often than they occur.
Assay Endpoint: Potency

Example entries and their recorded answers appear below.
Nc1cc(N)cc(N)c1 : 50.1 µM (active)
CCNc1ncc2nc(-c3cccs3)c(=O)n(CCC#N)c2n1 : 50.1 µM (active)
CCN(CC)CCCC(C)Nc1c2ccc(Cl)cc2nc2ccc(OC)cc12 (configuration not stated) : 89.1 µM (active)
CCOC(=O)Nc1ccc(NCc2ccc(F)cc2)nc1N : 112 µM (active)
CC[C@@]1(O)C(=O)OCc2c1cc1n(c2=O)Cc2cc3c(CN(C)C)c(O)ccc3nc2-1 : 89.1 µM (active)
Nc1ccc2cc3ccc(N)cc3nc2c1 : 89.1 µM (active)
FC(F)OC(Cl)C(F)(F)F (configuration not stated) : 31.6 µM (active)
CC(=O)Oc1ccc2c(c1)CC[C@@H]1[C@@H]2CC[C@]2(C)[C@@H](O)CC[C@@H]12 : 44.7 µM (active)

Quick check: Potency of "COc1cccc(Nc2ncc3nc(-c4cccs4)c(=O)n(-c4ccccc4)c3n2)c1" ? 50.1 µM (active)

Quick check: Potency of "CC(=O)[C@]1(O)Cc2c(O)c3c(c(O)c2[C@@H](O[C@H]2C[C@H](N)[C@H](O)[C@H](C)O2)C1)C(=O)c1ccccc1C3=O" ? 100 µM (active)

Quick check: Potency of "Cc1cc2nc3c(=O)[nH]c(=O)nc-3n(C[C@H](O)[C@H](O)[C@H](O)COP(=O)(O)OP(=O)(O)OC[C@H]3O[C@@H](n4cnc5c(N)ncnc54)[C@H](O)[C@@H]3O)c2cc1C" ? 89.1 µM (active)

Quick check: Potency of "Cc1cc(/C=C/c2ccnc3ccccc23)ccc1N(C)C" ? 50.1 µM (active)

Sourced from PubChem BioAssay AID1645887
